test: Cytotoxicity against HEK293T cells assessed as reduction in cell viability after 24 hrs by cell titer-glo luminescent cell viability assay; type: cell-based, HEK-293T; settings: human
Task for the reader: assign each of the following compounds its reported CC50 at 24 h.
Give bare numbers, in µM.

CCCNC(=O)C1CCN(C(=O)c2cc3sccc3n2Cc2ccc(OC)cc2)CC1 = 18.8

Problem: If you can, please state the reported CC50 at 24 h value of CCCNC(=O)C1CCN(C(=O)c2cc3sc(CNC(C)c4ccccc4)cc3n2Cc2ccc(OC)cc2)CC1 (stereo not given) .
Solution: 33.9

---

assay: Cytotoxicity against HEK293T cells assessed as reduction in cell viability after 24 hrs by cell titer-glo luminescent cell viability assay; format: cell-based, HEK-293T; settings: human
MEASURED ENDPOINT: CC50 at 24 h

CCCCC(=O)C1CCN(C(=O)c2cc3sccc3n2Cc2ccc(OC)cc2)CC1 = 38.9 µM

Provide the reported CC50 at 24 h of each entry below, same order.
1. COc1ccc(Cn2c(C(=O)O)cc3sccc32)cc1
2. COc1ccc(Cn2c(C(=O)N3CCC(C(=O)O)CC3)cc3sccc32)cc1

Solution:
> 100 µM
> 100 µM

Problem: If you can, please state the reported CC50 at 24 h value of CCCNC(=O)C1CCN(C(=O)c2c(Br)c3sccc3n2Cc2ccc(OC)cc2)CC1 .
Solution: 31.6 µM

---

test: Selectivity index, ratio of CC50 for HEK293T cells to EC50 for Chikungunya virus infected in HEK293T cells; format: toxicity, cell-based, HEK-293T; conditions: human, read-out: Ratio CC50/EC50
Task for the reader: assign each of the following compounds its reported selectivity ratio.

Study these solved cases before continuing.
COc1ccc(Cn2c(C(=O)N3CCN(Cc4ccccc4)CC3)cc3sccc32)cc1 = > 2.4
CCCNCc1c(C(=O)N2CCC(C(=O)NCCC)CC2)n(Cc2ccc(OC)cc2)c2ccsc12 = > 3.6
CCCNC(=O)C1CCN(C(=O)c2cc3sc(C#N)cc3n2Cc2ccc(OC)cc2)CC1 = > 20
COc1ccc(Cn2c(C(=O)N3CCOCC3)cc3sccc32)cc1 = > 1.3

Then there is this compound:
Problem: If you can, please state the reported selectivity ratio value of COc1ccc(Cn2c(C(=O)N3CCCCC3)cc3sccc32)cc1 .
Solution: > 2

---

test: Selectivity index, ratio of CC50 for HEK293T cells to EC50 for Chikungunya virus infected in HEK293T cells; format: toxicity, cell-based, HEK-293T; conditions: human, read-out: Ratio CC50/EC50
MEASURED ENDPOINT: selectivity ratio

COc1ccc(Cn2c(C(=O)N3CCCC3)cc3sccc32)cc1 = > 2.8
CCCNC(=O)C1CCN(C(=O)c2cc3sc(-c4ccccc4)cc3n2Cc2ccc(OC)cc2)CC1 = > 26
CCCNC(=O)C1CCN(C(=O)c2c(Br)c3sccc3n2Cc2ccc(OC)cc2)CC1 = 4.1

Then there is this compound:
Problem: If you can, please state the reported selectivity ratio value of COc1ccc(Cn2c(C(=O)N3CCC(C(=O)NCc4cccc(Br)c4)CC3)cc3sccc32)cc1 .
Solution: > 9.2

---

assay: Cytotoxicity against HEK293T cells assessed as reduction in cell viability after 24 hrs by cell titer-glo luminescent cell viability assay; type: cell-based, HEK-293T; conditions: human
MEASURED ENDPOINT: CC50 at 24 h

Study these solved cases before continuing.
COc1ccc(Cn2c(C(=O)N3CCC(C(=O)NCc4ccccc4)CC3)cc3sccc32)cc1 = > 100 µM
COc1ccc(Cn2c(C(=O)NCc3ccccc3)cc3sccc32)cc1 = > 100 µM

Then there is this compound:
Problem: If you can, please state the reported CC50 at 24 h value of COc1ccc(Cn2c(C(=O)N3CCN(Cc4ccccc4)CC3)cc3sc(-c4ccccc4)cc32)cc1 .
Solution: > 100 µM
